subject_of_test: Sm (Smith antigen)
test_protocol: AtheNA, Ab 25 ug/ml
measured_property: Athena reading (relative luminescence units)
Numbers only.

Problem: // Athena reading (relative luminescence units) lookup, key: CH235_4A (antibody, from a related filing, V domains shown) VH: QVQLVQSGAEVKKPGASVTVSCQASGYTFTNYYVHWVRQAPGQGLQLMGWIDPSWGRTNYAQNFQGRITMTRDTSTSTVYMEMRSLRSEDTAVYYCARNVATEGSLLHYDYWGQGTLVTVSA VL: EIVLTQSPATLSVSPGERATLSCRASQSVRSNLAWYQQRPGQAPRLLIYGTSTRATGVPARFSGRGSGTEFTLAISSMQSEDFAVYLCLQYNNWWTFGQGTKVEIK
Result: 7
